experiment: Phase I (1b) systemic pharmacokinetics, 600 mg b.i.d. for 10 days; type: in vivo, human; settings: human, plasma, po, 600 mg, day 1; 600 mg b.i.d. oral, 8 subjects; read-out: Cmax, systemic, arithmetic mean
recorded_endpoint: Cmax (ng/mL)

molecule: CC[C@H](C)[C@H](N)C(=O)NCCN1CCOCC1 [LM11A-31-BHS]
unit_of_measurement: ng/mL
reported: 1270

###

test: Aqueous solubility of the drug substance; assay type: physicochemical; conditions: water
recorded_endpoint: solubility

compound: CC[C@H](C)[C@H](N)C(=O)NCCN1CCOCC1 [LM11A-31-BHS]
reported: > 30 mg/mL

###

system: patients with mild to moderate Alzheimer's disease; assay: Phase IIa safety and tolerability (adverse events, vital signs, ECG, MRI, laboratory); format: in vivo, human; settings: 400 mg bid (N = 83), 26 weeks, safety population; listed as LM11A-31
recorded_endpoint: Adverse events, Intensity: Moderate, % of patients

compound: CC[C@H](C)[C@H](N)C(=O)NCCN1CCOCC1 [LM11A-31-BHS]
reported: 29%

###

test: Phase I (1b) cerebrospinal fluid (CSF) levels; type: in vivo; details: human, day 10, 600 mg b.i.d. oral, 8 subjects, read-out: Cmax in cerebrospinal fluid (CSF), arithmetic mean

compound: CC[C@H](C)[C@H](N)C(=O)NCCN1CCOCC1 [LM11A-31-BHS]
Cmax / ng/mL: 56

###

experiment: Phase I (1b) systemic pharmacokinetics, 600 mg b.i.d. for 10 days; assay type: in vivo, human; conditions: human, plasma, po, 600 mg, day 10; 600 mg b.i.d. oral, 8 subjects; read-out: Cmax, systemic, arithmetic mean

compound: CC[C@H](C)[C@H](N)C(=O)NCCN1CCOCC1 [LM11A-31-BHS]
Cmax / ng/mL: 885
